System: Bacillus subtilis
Experiment: Antimicrobial activity against Bacillus subtilis MTCC 441 after 24 to 48 hr by broth microdilution method
Format: functional
Record form. Attribute: MIC. Fill in for each entry.
Express your answer in µg/mL, writing the number without its unit.

Ask: Which measured MIC value corresponds to CC1(C)CC(=O)C2=C(C1)NC(=O)NC2c1cc2ccccc2[nH]c1=O (configuration not stated) ?
Result: 500

Ask: Which measured MIC value corresponds to CCn1cc(C(=O)O)c(=O)c2cc(F)c(N3CCNCC3)cc21 [NORFLOXACIN] ?
Result: 100

Ask: Which measured MIC value corresponds to O=C1CCCC2=C1C(c1cc3ccccc3[nH]c1=O)NC(=S)N2c1ccccc1 (configuration not stated) ?
Result: 250

Ask: Which measured MIC value corresponds to O=C1CCCC2=C1C(c1cc3ccccc3[nH]c1=O)NC(=S)N2 (configuration not stated) ?
Result: 200

Ask: Which measured MIC value corresponds to COc1ccc2[nH]c(=O)c(C3NC(=S)NC4=C3C(=O)CCC4)cc2c1 (configuration not stated) ?
Result: 200

Ask: Which measured MIC value corresponds to COc1ccc2[nH]c(=O)c(C3NC(=S)NC4=C3C(=O)CC(C)(C)C4)cc2c1 (configuration not stated) ?
Result: 200

Ask: Which measured MIC value corresponds to O=C1NC2=C(C(=O)CCC2)C(c2cc3ccccc3[nH]c2=S)N1 (configuration not stated) ?
Result: 500

Ask: Which measured MIC value corresponds to CC1(C)CC(=O)C2=C(C1)NC(=O)NC2c1cc2cc(Cl)ccc2[nH]c1=O (configuration not stated) ?
Result: 200

Ask: Which measured MIC value corresponds to O=C1NC2=C(C(=O)CCC2)C(c2cc3cc(Cl)ccc3[nH]c2=O)N1 (configuration not stated) ?
Result: 250

Ask: Which measured MIC value corresponds to Cc1ccc2[nH]c(=O)c(C3NC(=S)NC4=C3C(=O)CCC4)cc2c1 (configuration not stated) ?
Result: 500

Ask: Which measured MIC value corresponds to CC1(C)CC(=O)C2=C(C1)N(c1ccccc1)C(=S)NC2c1cc2ccccc2[nH]c1=O (configuration not stated) ?
Result: 500

Ask: Which measured MIC value corresponds to O=C(N[C@H](CO)[C@H](O)c1ccc([N+](=O)[O-])cc1)C(Cl)Cl [CHLORAMPHENICOL] ?
Result: 50

Ask: Which measured MIC value corresponds to O=C1CCCC2=C1C(c1cc3cc(Cl)ccc3[nH]c1=O)NC(=S)N2 (configuration not stated) ?
Result: 250

Ask: Which measured MIC value corresponds to CC1(C)CC(=O)C2=C(C1)NC(=S)NC2c1cc2cc(Cl)ccc2[nH]c1=O (configuration not stated) ?
Result: 50

Ask: Which measured MIC value corresponds to O=C1NC2=C(C(=O)CCC2)C(c2cc3ccccc3[nH]c2=O)N1 (configuration not stated) ?
Result: 200

Ask: Which measured MIC value corresponds to Cc1ccc2[nH]c(=O)c(C3NC(=S)N(c4ccccc4)C4=C3C(=O)CC(C)(C)C4)cc2c1 (configuration not stated) ?
Result: 250

Ask: Which measured MIC value corresponds to CC1(C)S[C@@H]2[C@H](NC(=O)[C@H](N)c3ccccc3)C(=O)N2[C@H]1C(=O)O [AMPICILLIN] ?
Result: 250

Ask: Which measured MIC value corresponds to Cc1ccc2[nH]c(=O)c(C3NC(=O)NC4=C3C(=O)CCC4)cc2c1 (configuration not stated) ?
Result: 500

Ask: Which measured MIC value corresponds to Cc1ccc2[nH]c(=O)c(C3NC(=O)NC4=C3C(=O)CC(C)(C)C4)cc2c1 (configuration not stated) ?
Result: 100

Ask: Which measured MIC value corresponds to Cc1ccc2[nH]c(=O)c(C3NC(=S)N(c4ccccc4)C4=C3C(=O)CCC4)cc2c1 (configuration not stated) ?
Result: 500

Ask: Which measured MIC value corresponds to O=C1CCCC2=C1C(c1cc3ccccc3[nH]c1=S)NC(=S)N2 (configuration not stated) ?
Result: 250

Ask: Which measured MIC value corresponds to COc1ccc2[nH]c(=O)c(C3NC(=O)NC4=C3C(=O)CCC4)cc2c1 (configuration not stated) ?
Result: 250
